target: glucagon receptor (GCGR) (Homo sapiens, UniProt P47871); construct: expressed in transfected cells; host or cells: CHO-K1 cells overexpressing GCGR (membrane fractions); assay: I125-glucagon binding assay (competition, GCGR membrane fractions)
Sequence (P47871 26-477): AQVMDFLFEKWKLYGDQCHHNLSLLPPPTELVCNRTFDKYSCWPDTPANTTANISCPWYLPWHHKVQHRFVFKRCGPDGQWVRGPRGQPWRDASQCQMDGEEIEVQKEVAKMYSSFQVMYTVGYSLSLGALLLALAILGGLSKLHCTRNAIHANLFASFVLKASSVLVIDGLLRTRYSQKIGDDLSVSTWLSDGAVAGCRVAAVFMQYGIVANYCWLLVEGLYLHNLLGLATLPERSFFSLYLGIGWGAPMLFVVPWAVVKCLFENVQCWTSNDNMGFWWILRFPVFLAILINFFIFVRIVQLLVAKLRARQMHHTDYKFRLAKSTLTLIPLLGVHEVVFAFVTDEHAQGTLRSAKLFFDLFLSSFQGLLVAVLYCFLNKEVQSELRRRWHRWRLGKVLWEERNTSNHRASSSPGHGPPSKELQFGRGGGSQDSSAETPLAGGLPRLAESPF
RECORDED_ENDPOINT: IC50 (nM)

Known IC50 results, listed for orientation:
{"MOLECULE": "CC(C)COC[C@@H](Cc1ccc(-c2ccc(Cl)cc2Cl)cc1)Nc1ccc(C(=O)NCCC(=O)O)cc1 [Compound 19-20]", "IC50 (nM)": 1150}
{"MOLECULE": "CCCC[C@@H](COc1ccc(-c2ccc(C(F)(F)F)cc2Cl)cn1)Nc1ccc(C(=O)NCCC(=O)O)cc1 [Compound 15-25]", "IC50 (nM)": 218}
{"MOLECULE": "CC(C)COC[C@@H](Cc1ccc(-c2cc3ccccc3o2)cc1)Nc1ccc(C(=O)NCCC(=O)O)cc1 [Compound 19-21]", "IC50 (nM)": 269}
{"MOLECULE": "CCOC(=O)CCNC(=O)c1ccc(N[C@H](Cc2ccc(-c3ccc(C(F)(F)F)cc3)cc2)C(=O)Nc2ccc(OC(F)(F)F)cc2)cc1 [Compound 24-27]", "IC50 (nM)": 1280}
{"MOLECULE": "CCCC[C@@H](COc1nnc(-c2ccc(C(F)(F)F)cc2F)o1)Nc1ccc(C(=O)NCCC(=O)O)cc1 [Compound 22-3]", "IC50 (nM)": 13600}
{"MOLECULE": "CCCC[C@@H](Cc1ccc(-c2cc3ccccc3o2)cc1)Nc1ccc(C(=O)NCCC(=O)O)cc1 [Compound 19-11]", "IC50 (nM)": 283}

A = CC[C@H](C)[C@@H](COc1ccc(-c2ccc(C(F)(F)F)cc2Cl)c(C)n1)Nc1ccc(C(=O)NCCC(=O)O)cc1 [Compound 18-3]
B = Cc1cc(C)c(-c2ccc(NC(=O)[C@H](Cc3ccccc3)Nc3ccc(C(=O)NCCC(=O)O)cc3)cc2)c(C)c1 [Compound 23-3]
C = CC(C)COC[C@H](Cc1ccc(-c2ccccc2C(F)(F)F)cc1)Nc1ccc(C(=O)NCCC(=O)O)cc1 [Compound 19-29]
INPUT: Sequence the entries by IC50, beginning with the highest number. // rank by listing labels in the order requested
OUTPUT: C, B, A

====

target: glucagon receptor (GCGR) (Homo sapiens); construct: expressed in transfected cells; host or cells: CHO-K1 cells overexpressing GCGR (membrane fractions); assay: I125-glucagon binding assay (competition, GCGR membrane fractions); conditions: uM
Entries and their IC50 values follow.

Known IC50 results, listed for orientation:
{"SMILES": "O=C(O)CCNC(=O)c1ccc(N[C@@H](Cc2ccccc2)C(=O)Nc2ccc(-c3ccc(Cl)cc3Cl)cc2)cc1", "IC50": "> 10 µM"}
{"SMILES": "O=C(NCCS(=O)(=O)O)c1ccc(N[C@@H](Cc2ccccc2)C(=O)Nc2ccc(-c3cc4ccccc4o3)cc2)cc1", "IC50": "> 10 µM"}
{"SMILES": "O=C(O)CCNC(=O)c1ccc(N[C@@H](Cc2ccc3ccccc3c2)C(=O)Nc2ccc(-c3cc4ccccc4o3)cc2)cc1", "IC50": "> 10 µM"}
{"SMILES": "O=C(O)CCNC(=O)c1ccc(N[C@@H](Cc2ccccc2)C(=O)Nc2ccc(-c3cc4ccccc4o3)cc2)cc1", "IC50": "> 10 µM"}
{"SMILES": "CCOC(=O)CCNC(=O)c1ccc(N[C@@H](Cc2ccccc2)C(=O)Nc2ccc(-c3ccc(Cl)cc3Cl)cc2)cc1", "IC50": "> 10 µM"}
{"SMILES": "CCOC(=O)CCNC(=O)c1ccc(N[C@@H](Cc2cccc3ccccc23)C(=O)Nc2ccc(-c3cc4ccccc4o3)cc2)cc1", "IC50": "> 10 µM"}

INPUT: // IC50 lookup, key: CCOC(=O)CCNC(=O)c1ccc(N[C@@H](Cc2ccc3ccccc3c2)C(=O)Nc2ccc(C(C)(C)C)cc2)cc1
OUTPUT: > 10 µM

INPUT: // IC50 lookup, key: CCOC(=O)CCNC(=O)c1ccc(N[C@@H](Cc2cccc3ccccc23)C(=O)Nc2ccc(C(C)(C)C)cc2)cc1
OUTPUT: > 10 µM

INPUT: // IC50 lookup, key: CCOC(=O)CCNC(=O)c1ccc(N[C@H](Cc2ccccc2)C(=O)Nc2ccc(C(F)(F)F)cc2)cc1
OUTPUT: > 10 µM

INPUT: // IC50 lookup, key: CCOC(=O)CCNC(=O)c1ccc(N[C@H](CC(C)C)C(=O)Nc2ccc(C(F)(F)F)cc2)cc1
OUTPUT: > 10 µM

INPUT: // IC50 lookup, key: CCOC(=O)CCNC(=O)c1ccc(N[C@H](Cc2ccc(-c3ccc(Cl)cc3Cl)cc2)C(=O)Nc2ccc(C(F)(F)F)cc2)cc1
OUTPUT: > 30 µM

INPUT: // IC50 lookup, key: CCOC(=O)CCNC(=O)c1ccc(N[C@H](COc2ccc(-c3nc4ccccc4s3)cn2)C(C)C)cc1
OUTPUT: > 30 µM

INPUT: // IC50 lookup, key: CCOC(=O)CCNC(=O)c1ccc(N[C@@H](Cc2ccc3ccccc3c2)C(=O)Nc2ccc(-c3cc4ccccc4o3)cc2)cc1
OUTPUT: > 10 µM
